- studySystem: Nuclear receptor coactivator 2 (Homo sapiens)
- assayMethodText: SRC2 coactivator transcriptional activity inhibitors, confirmation, cell-based, luminescence, HEK293, triplicate (AID 652008);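 also: 0% = DMSO-treated cells and 100% = Gossypol at 36 µM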
- measurementConditions: HEK293 GAL4-SRC2 luciferase reporter, at 8.9 µM
Calls of active or inactive are those of the source.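 The calls were made as follows: active = mean inhibition above 46.5%, the solvent-only control mean plus 3 SD; inactive = the rest.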
Valid outcomes are listed here; reply with one: active, inactive

Would you please look over these solved cases?
>>> qualitativelabel("CN(C)c1ccc(C(=S)Nc2ccccc2)cc1")
"active"
>>> qualitativelabel("O=C1C(Cl)=C(Nc2ccc3cn[nH]c3c2)C(=O)c2ccccc21")
"active"
>>> qualitativelabel("O=C(O)CCCc1nc(-c2ccc(Cl)cc2)no1")
"inactive"
>>> qualitativelabel("COc1ccc(-c2cc(=O)oc3c(C)c(O)ccc23)cc1")
"inactive"
>>> qualitativelabel("CCCCOc1ccc(C2(C)NC(=O)NC2=O)cc1 (stereo unspecified)")
"inactive"

Could you now consider this next molecule?
# lookup: test call for Nc1nonc1C(=O)NCCNCc1cc(Br)ccc1OCc1ccc(F)cc1
inactive

====

- Tested on: T-cell receptor (TCR)-CD3 interaction, human
- assayMethodText: TCR-CD3 interaction inhibitors, retest, confirmation, biochemical, fluorescence, TAMRA-labeled TCR probe (AID 652036)
- measurementConditions: TAMRA-labeled TCR probe fluorescence binding assay; at 9.4 µM; active compounds read high
The list shows a part of the results.
inhibition overview
Provide the reading as a plain figure in %.

>>> observedmeasurement("COc1ccccc1N(CC(=O)N/N=C(\\C)c1ccccc1O)S(=O)(=O)c1ccc(C)cc1")
14.3
>>> observedmeasurement("NC1=CC(=O)C(=O)c2cccnc21")
11.5
>>> observedmeasurement("Oc1ccc(N=Cc2sc3ccccc3c2Cl)cc1")
7.56
>>> observedmeasurement("COc1ccccc1C(=O)NNC(=O)CCN1C(=O)/C(=C\\c2ccccc2)SC1=S")
9.19
>>> observedmeasurement("Cc1ncc(CO)c(/C=N/NC(=O)c2cccc(S(=O)(=O)N3CCCC3)c2)c1O")
15.4

Name the recorded inhibition of the molecule listed here: Cc1ccc(C(=O)NCC(=O)O)cc1S(=O)(=O)N1CCCCC1
5.08

Name the recorded inhibition of the molecule listed here: O=c1c2ccccc2c(-c2ccccc2)nn1-c1ccccn1
-0.97

Name the recorded inhibition of the molecule listed here: COc1cc(C(=O)NCC2(c3ccccc3)CCCC2)ccc1OC(C)C
2.19

====

- assayMethodText: VP16 transactivation reporter inhibitors, counter-screen for LRH-1 inverse agonist project, cell-based, luminescence, high throughput (AID 651615)
- measurementConditions: Gal4-VP16 luciferase reporter cells, at 3.6 µM, active compounds read high
The source made the active and inactive calls. No stated cut-off is given here; in the data, active means inhibition above about 33%; inactive means the rest.
measuredAttribute: inhibition

>>> observedmeasurement("O=[N+]([O-])c1ccc(/C=N/Nc2ccnc3cc(Cl)ccc23)o1")
"-10.5% (inactive)"

Name the recorded inhibition of the molecule listed here: O=C(CSC1=NCCS1)N1CCN(c2ccc(Cl)cc2)CC1
18.2% (inactive)

====

- System: transactivating tegument protein VP16 (Human herpesvirus 1)
- assayMethodText: VP16 transactivation reporter inhibitors, counter-screen for SRC2 inhibitor project, cell-based, luminescence, single concentration (AID 652007)
- measurementConditions: cell-based VP16 transactivation luciferase reporter, at 8.9 µM, active compounds read high
inhibition overview
Provide the reading as a plain figure in %.

Solved entries:
>>> observedmeasurement("Cc1cccc(NC(=O)Nc2ccc(Cl)c(Cl)c2)n1")
-83.6
>>> observedmeasurement("CC(C)C[C@@H]1COc2cc(Br)ccc2S(=O)(=O)N1Cc1cn(CCC2OCCCO2)nn1")
-3.85
>>> observedmeasurement("COc1cc(/C=C2\\CC/C(=C\\c3cc(OC)c(O)c(OC)c3)C2=O)cc(OC)c1O")
-70.7

Report its inhibition with transactivating tegument protein VP16 (Human herpesvirus 1) as the test system: O=C(Nc1ccc(N2CCN(C(=O)c3ccco3)CC2)c(Cl)c1)c1cc2ccccc2o1
53.3

Report its inhibition with transactivating tegument protein VP16 (Human herpesvirus 1) as the test system: CCN(CC)S(=O)(=O)c1cccc(C(=O)N/N=C(\C)c2ccc(O)cc2O)c1
2.49
